- measured-on: MAPKAPK2 (MK-2) (Homo sapiens, UniProt P49137)
- Sequence (P49137 whole entry, species assumed): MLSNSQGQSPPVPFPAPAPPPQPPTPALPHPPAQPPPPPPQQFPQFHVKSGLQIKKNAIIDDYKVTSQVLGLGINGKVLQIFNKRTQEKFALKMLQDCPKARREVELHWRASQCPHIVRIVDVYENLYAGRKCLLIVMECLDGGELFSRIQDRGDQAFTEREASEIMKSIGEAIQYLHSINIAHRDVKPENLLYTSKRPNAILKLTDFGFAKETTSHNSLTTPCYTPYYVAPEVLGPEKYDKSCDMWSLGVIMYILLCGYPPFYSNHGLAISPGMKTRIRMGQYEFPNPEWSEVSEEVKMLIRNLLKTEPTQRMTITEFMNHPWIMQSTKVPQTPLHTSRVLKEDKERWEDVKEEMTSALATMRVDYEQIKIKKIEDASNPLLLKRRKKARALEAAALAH
- assay-remarks: Determination of MK-2 IC50 (HSP-peptide phosphorylation, anion exchange resin capture assay)
- Assay type: biochemical
- run-parameters: Table 2, pyrazolylpyrazole MK-2 inhibitors; read-out: MK-2 Avg. IC50
pIC50: −log10 of the molar value.
reported-property: pIC50

Examples from the recorded data:
>>> value_reported("NC(=O)c1nn(Cc2ccccc2)c2c1CCc1[nH]ncc1-2")
3.92
>>> value_reported("O=C(O)c1nn(CC(F)(F)F)c2c1CCc1c-2cnn1C(c1ccccc1)(c1ccccc1)c1ccccc1")
4.17

I = C=CCn1nc2c(c1C(N)=O)CCc1[nH]ncc1-2
II = NCCn1nc2c(c1C(=O)O)CCc1[nH]ncc1-2
I'm curious whether I or II has the smaller pIC50 number. Which is it? I would appreciate it if you answered with the label of your choice.
I
